test description: recombinant UMI read abundance after kanamycin selection (control-corrected) (log10(CPM+1)); higher = more efficient recombination; extreme values may be limits of the assay; sequences stand for … in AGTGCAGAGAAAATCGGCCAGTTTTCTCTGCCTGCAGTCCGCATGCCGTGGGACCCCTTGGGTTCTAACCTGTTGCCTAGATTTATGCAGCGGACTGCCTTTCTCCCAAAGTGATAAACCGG…AGGTTGGTTTCACT; site = the 11-nt donor
endpoint name: recombinant UMI read abundance (log10)
// return just the number, without any unit appended

sequence data: CGGACAACATGGACCGGTTTTCCCGGTAATCCGTATTTGCT (site CGGACAGCTAG)
reported: 0.34
//
sequence data: GATTAACCATGGACCGGTTTTCCCGGTAATCCGTATTTGCT (site GATTACCCTAG)
reported: 0
//
sequence data: ATGTACGCATGGACCGGTTTTCCCGGTAATCCGTATTTGGC (site ATGTATGCTGC)
reported: 0
//
sequence data: GTGGAGCCATGGACCGGTTTTCCCGGTAATCCGTATTTGTT (site GTGGAGCCTAA)
reported: 0.012
//
sequence data: GGAACGGCATGGACCGGTTTTCCCGGTAATCCGTATTTGGA (site GGAACGGCTTC)
reported: 1.09

**Query** Using the record for TCACATCCATGGACCGGTTTTCCCGGTAATCCGTATTTGAC (site CCACATCCTGT) , state its measured recombinant UMI read abundance (log10).
**Result** 0

**Query** Using the record for TCCAATTCATGGACCGGTTTTCCCGGTAATCCGTATTTGTC (site TCCAATTCTGG) , state its measured recombinant UMI read abundance (log10).
**Result** 0

**Query** Using the record for GGTTCAACATGGACCGGTTTTCCCGGTAATCCGTATTTGTA (site GGTGCAACTTA) , state its measured recombinant UMI read abundance (log10).
**Result** 0.00737

**Query** Using the record for ACTCATCCATGGACCGGTTTTCCCGGTAATCCGTATTTGAC (site ACCCATCCTGT) , state its measured recombinant UMI read abundance (log10).
**Result** 0.872

**Query** Using the record for CGGGAGTCATGGACCGGTTTTCCCGGTAATCCGTATTTGCG (site CGGGAGTCTGG) , state its measured recombinant UMI read abundance (log10).
**Result** 0

**Query** Using the record for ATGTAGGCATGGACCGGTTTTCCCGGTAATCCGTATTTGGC (site AGGTAGGCTGC) , state its measured recombinant UMI read abundance (log10).
**Result** 0.332

---

test description: recombinant UMI read abundance after kanamycin selection (control-corrected) (log10(CPM+1)); higher = more efficient recombination; extreme values may be limits of the assay; sequences stand for … in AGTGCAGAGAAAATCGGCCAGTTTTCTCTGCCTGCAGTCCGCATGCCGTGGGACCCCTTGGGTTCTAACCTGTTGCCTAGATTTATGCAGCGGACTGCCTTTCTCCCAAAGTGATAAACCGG…AGGTTGGTTTCACT; site = the 11-nt donor
endpoint name: recombinant UMI read abundance (log10)

As a guide, the following entries are already answered.
sequence data: ACACCGTCATGGACCGGTTTTCCCGGTAATCCGTATTTGCC (site ACACCGTCTGG)
recombinant UMI read abundance (log10): 3.04
//
sequence data: CGAAATTCATGGACCGGTTTTCCCGGTAATCCGTATTTGTT (site CGGAATCCTAA)
recombinant UMI read abundance (log10): 0
//
sequence data: GATCGAGCATGGACCGGTTTTCCCGGTAATCCGTATTTGCA (site GCTCGAGCTTG)
recombinant UMI read abundance (log10): 1.17
//
sequence data: AATGCAGCATGGACCGGTTTTCCCGGTAATCCGTATTTGAA (site AATGCAGCTTT)
recombinant UMI read abundance (log10): 0.709
//
sequence data: AGGTTCCCATGGACCGGTTTTCCCGGTAATCCGTATTTGGG (site AGGTTCCCTCT)
recombinant UMI read abundance (log10): 0.0453

**Query** Using the record for TCGCTAGCATGGACCGGTTTTCCCGGTAATCCGTATTTGCC (site TCGCTAGCTGG) , state its measured recombinant UMI read abundance (log10).
**Result** 0

**Query** Using the record for CGAAATCCATGGACCGGTTTTCCCGGTAATCCGTATTTGTT (site CGAAATCCTAA) , state its measured recombinant UMI read abundance (log10).
**Result** 0.953

---

test description: recombinant barcode read abundance after kanamycin selection (control-corrected) (log10(CPM+1)); higher = more efficient recombination; sequences stand for … in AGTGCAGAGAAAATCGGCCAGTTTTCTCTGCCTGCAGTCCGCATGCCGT…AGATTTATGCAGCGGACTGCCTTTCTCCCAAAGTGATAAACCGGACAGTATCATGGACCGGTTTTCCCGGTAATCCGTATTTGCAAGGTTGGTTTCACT; site = the 11-nt target
endpoint name: recombinant barcode read abundance (log10)
// return just the number, without any unit appended

As a guide, the following entries are already answered.
sequence data: TAAATCACTTGGGTTCTAACCTGTTGCCG (site TAAATCACTCG)
reported: 0.281
//
sequence data: TCGAACTCTTGGGTTCTAACCTGTTGCTT (site TCGCGCTCTAA)
reported: 0.0841
//
sequence data: GCGAAGTCTTGGGTTCTAACCTGTTGCTT (site GCGAACACTAA)
reported: 0.0375
//
sequence data: TGAGCTACTTGGGTTCTAACCTGTTGCAC (site TGAGCTACTGT)
reported: 1.16
//
sequence data: CTTAGGACTTGGGTTCTAACCTGTTGCCA (site CTTAGGACTTG)
reported: 0.265
//
sequence data: GAGGCAACTTGGGTTCTAACCTGTTGCTT (site GAGGCAACTAA)
reported: 0.0561
//
sequence data: GAGATCCCTTGGGTTCTAACCTGTTGCTA (site GAGATCCCTTA)
reported: 1.93
//
sequence data: TATGACGCTTGGGTTCTAACCTGTTGCCT (site TATGACGCTAG)
reported: 1.12

**Query** Using the record for TCCGAGACTTGGGTTCTAACCTGTTGCCT (site TCCGAGACTAG) , state its measured recombinant barcode read abundance (log10).
**Result** 1.4

**Query** Using the record for TAGTGTCCTTGGGTTCTAACCTGTTGCGT (site TAGTTTCCTAC) , state its measured recombinant barcode read abundance (log10).
**Result** 0.0286

**Query** Using the record for CGGGGTTCTTGGGTTCTAACCTGTTGCCT (site CTGGGTTCTAG) , state its measured recombinant barcode read abundance (log10).
**Result** 0.0823

**Query** Using the record for CACGAGGCTTGGGTTCTAACCTGTTGCCT (site CACGAGGCTAG) , state its measured recombinant barcode read abundance (log10).
**Result** 0.527

**Query** Using the record for TAATGACCTTGGGTTCTAACCTGTTGCTT (site TAATGACCTAA) , state its measured recombinant barcode read abundance (log10).
**Result** 0.816

**Query** Using the record for TAGCCTTCTTGGGTTCTAACCTGTTGCAG (site TAGCCTTCTCT) , state its measured recombinant barcode read abundance (log10).
**Result** 1.14

**Query** Using the record for TGGCGTGCTTGGGTTCTAACCTGTTGCCT (site TGTTGTGCTAG) , state its measured recombinant barcode read abundance (log10).
**Result** 0.118

---

test description: recombinant UMI read abundance after kanamycin selection (control-corrected) (log10(CPM+1)); higher = more efficient recombination; extreme values may be limits of the assay; sequences stand for … in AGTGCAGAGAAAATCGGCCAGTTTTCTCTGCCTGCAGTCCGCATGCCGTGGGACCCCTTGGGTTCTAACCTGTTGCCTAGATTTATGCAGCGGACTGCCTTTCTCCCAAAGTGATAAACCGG…AGGTTGGTTTCACT; site = the 11-nt donor
# label = rule met if recombinant UMI read abundance (log10) >= 0.5 else rule not met

Please review the entries below; each comes with its answer.
sequence data: TAGCTAGCATGGACCGGTTTTCCCGGTAATCCGTATTTGCA (site TAGCTAGCTTG)
discrete label: rule met

sequence data: CCGCTACCATGGACCGGTTTTCCCGGTAATCCGTATTTGCT (site CCGCTACCTAG)
discrete label: rule not met

**Query** Textbook exercise: given the entry CGGACATCATGGACCGGTTTTCCCGGTAATCCGTATTTGGT (site CGGACATCTAG) , state whether its recombinant UMI read abundance (log10) is greater than or equal to 0.5.
**Result** rule not met

**Query** Textbook exercise: given the entry AAGAAAACATGGACCGGTTTTCCCGGTAATCCGTATTTGGT (site AAGAAAACTAC) , state whether its recombinant UMI read abundance (log10) is greater than or equal to 0.5.
**Result** rule met

**Query** Textbook exercise: given the entry TGGTTGACATGGACCGGTTTTCCCGGTAATCCGTATTTGTA (site TGGTTGACTTA) , state whether its recombinant UMI read abundance (log10) is greater than or equal to 0.5.
**Result** rule met

**Query** Textbook exercise: given the entry TAGGAATCATGGACCGGTTTTCCCGGTAATCCGTATTTGAG (site TAGGAATCTCC) , state whether its recombinant UMI read abundance (log10) is greater than or equal to 0.5.
**Result** rule met

**Query** Textbook exercise: given the entry TTCAGTCCATGGACCGGTTTTCCCGGTAATCCGTATTTGAT (site TTCAGTCCTAT) , state whether its recombinant UMI read abundance (log10) is greater than or equal to 0.5.
**Result** rule not met

**Query** Textbook exercise: given the entry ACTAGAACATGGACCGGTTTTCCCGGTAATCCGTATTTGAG (site ACTAGCACTCT) , state whether its recombinant UMI read abundance (log10) is greater than or equal to 0.5.
**Result** rule not met

**Query** Textbook exercise: given the entry GATTGGGCATGGACCGGTTTTCCCGGTAATCCGTATTTGAC (site GATTGGCCTGT) , state whether its recombinant UMI read abundance (log10) is greater than or equal to 0.5.
**Result** rule not met

From: the supplement of paper PMC11208160
